Hi there, I'd appreciate the recorded IC50 for every entry that follows.
tested on: ShHTLs (10 HTL proteins in S. hermonthica); assay: YLG-based competition assay on HTL proteins of S. hermonthica; assay type: biochemical, Striga hermonthica; conditions: ShHTL3; YLG competition; Supplementary Fig. 27; read-out: IC50, replicate 2
Numbers only here, please. The scale is µM.

### Prompt # lookup: IC50 of CC1=CC(OC(=O)N2CCN(C(=O)COc3ccc(Br)cc3C)CC2)CC1=O (stereo not shown)
### Response 33.3

### Prompt # lookup: IC50 of CC1=C[C@H](OC(=O)N2CCN(C(=O)COc3ccc(Br)cc3C)CC2)OC1=O [(S)-4a]
### Response 15.4

### Prompt # lookup: IC50 of CC1=C[C@@H](OC(=O)N2CCN(C(=O)COc3ccc(Br)cc3C)CC2)OC1=O [(R)-4a]
### Response 76.7

### Prompt # lookup: IC50 of CC1=CC(OC(=O)N2CCN(C(=O)COc3ccc(Br)cc3C)CC2)OC1=O (stereo not shown)
### Response 41.4

### Prompt # lookup: IC50 of CC1=C[C@H](O/C=C2/C(=O)O[C@@H]3c4ccccc4C[C@H]23)OC1=O (racemic) [rac-GR24, reference compound]
### Response 7.11

The measured values listed here are drawn from paper PMC9271048.
